Cited source for all entries: ChEMBL document CHEMBL1150283

IC50 overview
Tested on: MIA PaCa-2
Test: Antiproliferative activity against human MiaPaCa2 cells after 3 days by MTT assay
Type: functional, cell-based
Conditions: MIA PaCa-2, 72 h
Give your result in µM as a bare value.

Worked set:
O=C1c2ccccc2C(=O)N1C/C=C/Cn1cc(C#CCCc2ccccc2)c(=O)[nH]c1=O    27
CCCCc1ccc(C#Cc2cn(C/C=C\CN3C(=O)c4ccccc4C3=O)c(=O)[nH]c2=O)cc1    56
CCCCc1ccc(C#Cc2cn(C/C=C/CN3C(=O)c4ccccc4C3=O)c(=O)[nH]c2=O)cc1    79

**Q:** # return recorded IC50 for input `CCCCCCCCC#Cc1cn(C/C=C\CN2C(=O)c3ccccc3C2=O)c(=O)[nH]c1=O`
**A:** 68

**Q:** Answer with reported IC50 of `CCCCCCC#Cc1cn(C/C=C/CN2C(=O)c3ccccc3C2=O)c(=O)[nH]c1=O`
**A:** 30

**Q:** Return reported IC50. Input compound: O=c1[nH]cc(F)c(=O)[nH]1 [FLUOROURACIL]
**A:** 6.5

---

System: Human alphaherpesvirus 3
Test: Antiviral activity against Varicella-Zoster virus assessed as inhibition of virus-induced cytopathogenicity in HEL cells
Format: functional, organism-based
Conditions: Human alphaherpesvirus 3, HEL
Recorded endpoint: pEC50
The value called pEC50 is obtained by taking minus log10 of the concentration in mol/L.

**Q:** Entry `CCCCCc1ccc(C#Cc2cn(C/C=C\CN3C(=O)c4ccccc4C3=O)c(=O)[nH]c2=O)cc1` needs its pEC50 filled in; supply it.
**A:** 5.06

---

Test system: SW-620
Test: Antiproliferative activity against human SW620 cells after 3 days by MTT assay
Assay type: functional, cell-based
Details: SW-620, 72 h
Recorded endpoint: IC50 (µM)
Report the value in µM with no unit label.

CCCCC#Cc1cn(C/C=C\CN2C(=O)c3ccccc3C2=O)c(=O)[nH]c1=O    82
O=c1[nH]cc(F)c(=O)[nH]1 [FLUOROURACIL]    8.7

**Q:** Give IC50 for `CCCCCCCCC#Cc1cn(C/C=C/CN2C(=O)c3ccccc3C2=O)c(=O)[nH]c1=O`
**A:** 87

**Q:** Output IC50 of `CCCCCc1ccc(C#Cc2cn(C/C=C/CN3C(=O)c4ccccc4C3=O)c(=O)[nH]c2=O)cc1`
**A:** 30

---

Tested on: SW-620
Assay: Antiproliferative activity against human SW620 cells after 3 days by MTT assay
Type: functional, cell-based
Settings: SW-620, 72 h
# IC50 per entry
Your answer should be a plain number; it is taken to be in µM.

O=C1c2ccccc2C(=O)N1C/C=C/Cn1cc(C#CCCc2ccccc2)c(=O)[nH]c1=O    11
CCCCCCCCC#Cc1cn(C/C=C\CN2C(=O)c3ccccc3C2=O)c(=O)[nH]c1=O    67
CCCCCC#Cc1cn(C/C=C/CN2C(=O)c3ccccc3C2=O)c(=O)[nH]c1=O    58

We now examine a further compound.
**Q:** Tell us which IC50 value is on record for `CCCCCCC#Cc1cn(C/C=C/CN2C(=O)c3ccccc3C2=O)c(=O)[nH]c1=O`
**A:** 32

---

This section presents compounds with their documented IC50 values.
System: MCF7
Experiment: Antiproliferative activity against human MCF7 cells after 3 days by MTT assay
Assay type: functional, cell-based
Conditions: MCF7, 72 h
Number in µM, nothing else.

CCCCC#Cc1cn(C/C=C\CN2C(=O)c3ccccc3C2=O)c(=O)[nH]c1=O    45
CCCCCCC#Cc1cn(C/C=C/CN2C(=O)c3ccccc3C2=O)c(=O)[nH]c1=O    24
CCCCC#Cc1cn(C/C=C/CN2C(=O)c3ccccc3C2=O)c(=O)[nH]c1=O    8.8
CCCCCc1ccc(C#Cc2cn(C/C=C/CN3C(=O)c4ccccc4C3=O)c(=O)[nH]c2=O)cc1    5.6
CCCCc1ccc(C#Cc2cn(C/C=C/CN3C(=O)c4ccccc4C3=O)c(=O)[nH]c2=O)cc1    44

**Q:** Consider the compound `CCCCc1ccc(C#Cc2cn(C/C=C\CN3C(=O)c4ccccc4C3=O)c(=O)[nH]c2=O)cc1` . State its measured IC50.
**A:** 43

**Q:** Identify measured IC50 associated with `O=C1c2ccccc2C(=O)N1C/C=C/Cn1cc(C#CCCc2ccccc2)c(=O)[nH]c1=O`
**A:** 13

**Q:** Specify IC50 for `CCCCCCCCC#Cc1cn(C/C=C/CN2C(=O)c3ccccc3C2=O)c(=O)[nH]c1=O` and stop.
**A:** 66

**Q:** Quick one: give measured IC50 for `CCCCCC#Cc1cn(C/C=C/CN2C(=O)c3ccccc3C2=O)c(=O)[nH]c1=O`
**A:** 44

**Q:** Identify the reported IC50 for the following entry. `CCCCCCCCC#Cc1cn(C/C=C\CN2C(=O)c3ccccc3C2=O)c(=O)[nH]c1=O`
**A:** 64

---

Test system: MIA PaCa-2
Assay: Antiproliferative activity against human MiaPaCa2 cells after 3 days by MTT assay
Format: functional, cell-based
Details: MIA PaCa-2, 72 h
pIC50: −log10 of the molar value.
Listed compounds paired with reported pIC50

Recorded pIC50, per entry:
CCCCC#Cc1cn(C/C=C\CN2C(=O)c3ccccc3C2=O)c(=O)[nH]c1=O    < 4.00
Cc1ccc(C#Cc2cn(C/C=C\CN3C(=O)c4ccccc4C3=O)c(=O)[nH]c2=O)cc1    < 4.00
O=C1c2ccccc2C(=O)N1C/C=C\Cn1cc(C#Cc2ccc(Br)cc2)c(=O)[nH]c1=O    < 4.00
CCCCCCCCC#Cc1cn(C/C=C/CN2C(=O)c3ccccc3C2=O)c(=O)[nH]c1=O    < 4.00

**Q:** Let me know recorded pIC50 for `CCCCCc1ccc(C#Cc2cn(C/C=C\CN3C(=O)c4ccccc4C3=O)c(=O)[nH]c2=O)cc1` , thanks.
**A:** < 4.00

**Q:** Given the compound `CCCCCC#Cc1cn(C/C=C/CN2C(=O)c3ccccc3C2=O)c(=O)[nH]c1=O` , write its reported pIC50.
**A:** 4.22

**Q:** State its pIC50: `O=C1c2ccccc2C(=O)N1C/C=C\Cn1cc(C#CCCc2ccccc2)c(=O)[nH]c1=O`
**A:** < 4.00

**Q:** Report pIC50 for `CCCCCc1ccc(C#Cc2cn(C/C=C/CN3C(=O)c4ccccc4C3=O)c(=O)[nH]c2=O)cc1`
**A:** 4.59

**Q:** For the compound `CCCCC#Cc1cn(C/C=C/CN2C(=O)c3ccccc3C2=O)c(=O)[nH]c1=O` , report pIC50.
**A:** 4.11
